Cited source for all entries: ChEMBL document CHEMBL1201862

- STUDY_TARGET: UniProt:P04054
- Sequence (P04054 whole entry): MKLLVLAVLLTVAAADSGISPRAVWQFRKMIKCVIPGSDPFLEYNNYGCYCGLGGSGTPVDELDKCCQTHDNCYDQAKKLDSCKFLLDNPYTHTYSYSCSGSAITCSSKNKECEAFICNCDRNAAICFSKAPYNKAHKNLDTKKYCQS
- Assay type: functional
Activity calls are given as the source filed them.
Hello, when you answer, please use one of the following outcomes: True = active, False = inactive

Example entries begin here.
Data request: Called result for CC(C)COC(=O)c1ccc(N2C(=O)c3ccccc3C2=O)cc1
Data returned: False

Data request: Called result for CCC(=O)NC(=S)Nc1cccc(Cl)c1N1CCCCC1
Data returned: True

Data request: Called result for CC(C)Oc1ccc(C(CC(=O)NCc2ccco2)c2ccccc2)cc1 (centres undefined)
Data returned: True

Moving on to another compound below.
Data request: Called result for CC1(C)Cc2c(sc(NC(=S)NC(=O)c3ccccc3)c2C(=O)O)CO1
Data returned: True

* * *

The molecules below have reported AC50 for Cytochrome P450 1A2 (Homo sapiens).

Measured AC50 (Cytochrome P450 1A2 (Homo sapiens)), entry O=C(O)c1cc(O)c2c(Cl)cc(Cl)cc2n1 : 39.8 µM (inconclusive)

Measured AC50 (Cytochrome P450 1A2 (Homo sapiens)), entry COc1cc(-n2ccnc2SC)c(Cl)cc1Cl : 15.8 µM (inconclusive)

Measured AC50 (Cytochrome P450 1A2 (Homo sapiens)), entry O=C(Cn1cc(C(F)(F)F)ccc1=O)N1CCN(S(=O)(=O)c2ccccc2)CC1 : 39.8 µM (inconclusive)

Measured AC50 (Cytochrome P450 1A2 (Homo sapiens)), entry O=c1c(-c2ccc(F)cc2)nc2cnc(N3CCOCC3)nc2n1CCc1ccccc1 : 25.1 µM (inconclusive)

Measured AC50 (Cytochrome P450 1A2 (Homo sapiens)), entry CN(C)C=O.COCCn1c(SCc2nc(O)c3c(C)c(C(=O)OC)sc3n2)nc2ccccc21 : 25.1 µM (inconclusive)

Measured AC50 (Cytochrome P450 1A2 (Homo sapiens)), entry COc1ccc(-c2nc3cnc(N4CCN(C)CC4)nc3n(-c3ccc(OC)cc3)c2=O)cc1 : 15.8 µM (inconclusive)

Measured AC50 (Cytochrome P450 1A2 (Homo sapiens)), entry COC(=O)[C@@]1(Cc2ccccc2)[C@H]2c3cc(C(=O)N(C)C)n(Cc4ccc(S(C)(=O)=O)cc4)c3C[C@H]2CN1C(=O)c1ccccc1 : 31.6 µM (inconclusive)

Measured AC50 (Cytochrome P450 1A2 (Homo sapiens)), entry N#Cc1cccc(NC(=O)N2CCCC3(CCN(C(=O)Oc4ccccc4)CC3)C2)c1 : 15.8 µM (inconclusive)

Measured AC50 (Cytochrome P450 1A2 (Homo sapiens)), entry COc1ncc2nc(-c3cc(F)cc(F)c3)c(=O)n(-c3ccccc3)c2n1 : 1.26 µM (inconclusive)

// next entry
Measured AC50 (Cytochrome P450 1A2 (Homo sapiens)), entry COc1ccc2nc(SCC(=O)NN)cc(C)c2c1 : 0.398 µM (inconclusive)

* * *

- STUDY_TARGET: CAAX prenyl protease 2 (Homo sapiens, UniProt Q9Y256)
- Sequence (Q9Y256 whole entry): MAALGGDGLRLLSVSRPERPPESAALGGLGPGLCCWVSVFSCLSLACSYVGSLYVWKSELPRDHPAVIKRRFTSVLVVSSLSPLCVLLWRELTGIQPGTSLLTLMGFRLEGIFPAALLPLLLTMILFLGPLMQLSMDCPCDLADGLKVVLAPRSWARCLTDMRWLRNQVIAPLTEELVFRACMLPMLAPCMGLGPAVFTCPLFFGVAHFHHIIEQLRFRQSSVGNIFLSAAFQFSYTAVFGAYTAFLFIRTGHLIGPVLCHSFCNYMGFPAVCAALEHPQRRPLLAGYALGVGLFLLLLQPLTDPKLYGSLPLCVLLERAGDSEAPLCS
- METHOD_DESCRIPTION: human Rce1 protease inhibitors, dose response, biochemical, yeast membranes, quenched-peptide fluorescence, cherry-pick (AID 588849)
Active and inactive are the calls of the source.
Here the recorded AC50 is given for each entry.

// known answers, use as guide
Looking up C[C@H]1COc2c(N3CCN(C)CC3)c(F)cc3c(=O)c(C(=O)O)cn1c23 , I see its AC50 listed as 41 µM (active)

Looking up CCOC(=O)c1c(-c2ccccc2)oc2ccc(OCC(O)CNCCN(C)C)cc12 (centres undefined) , I see its AC50 listed as 11.8 µM (active)

Looking up COc1ccc(OC)c(/C=N/NC(=O)CSc2cc(C)nc3c(OC)cccc23)c1 , I see its AC50 listed as 10.7 µM (active)

---
Looking up CCOc1cc(-c2nc3c(C)cccn3c2NCC2CCCO2)ccc1O.CNC (centres undefined) , I see its AC50 listed as 15.1 µM (active)

* * *

- STUDY_TARGET: UniProt:P38532
- Sequence (P38532 whole entry): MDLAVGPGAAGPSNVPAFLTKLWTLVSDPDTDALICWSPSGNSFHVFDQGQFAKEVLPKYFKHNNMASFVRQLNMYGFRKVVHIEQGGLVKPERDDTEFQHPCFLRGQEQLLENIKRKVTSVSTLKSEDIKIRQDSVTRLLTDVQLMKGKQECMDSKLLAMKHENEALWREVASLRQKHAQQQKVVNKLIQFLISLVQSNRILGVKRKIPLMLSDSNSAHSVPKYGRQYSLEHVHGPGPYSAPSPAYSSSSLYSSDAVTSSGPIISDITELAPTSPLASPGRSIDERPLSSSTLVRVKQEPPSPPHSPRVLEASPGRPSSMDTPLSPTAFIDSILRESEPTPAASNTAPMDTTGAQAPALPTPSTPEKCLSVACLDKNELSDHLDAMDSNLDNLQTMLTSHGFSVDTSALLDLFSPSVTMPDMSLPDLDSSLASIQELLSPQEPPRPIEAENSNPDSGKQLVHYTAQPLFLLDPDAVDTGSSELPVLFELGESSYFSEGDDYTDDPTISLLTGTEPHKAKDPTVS
- METHOD_DESCRIPTION: inhibition of MG132-induced HSE-luciferase signal, confirmation, cell-based, NIH3T3, luminescence, dose retest (AID 2382);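 note: NIH3T3 fibroblasts with HSF1-driven luciferase reporter stressed by proteasome inhibitor MG132; luminescence from HSF1-driven luciferase expression after 8 hours of MG132 stress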
- Assay type: functional
Calls of active or inactive are those of the source.
Here the recorded EC50 is given for each entry.

Looking up CC(=O)c1c(C)n(CCCOC(C)C)c2ccc(O)cc12 , I see its EC50 listed as > 195 µM (not active)

Looking up S=C(NCCc1ccccc1)N1CCN(Cc2ccc(Cl)c(Cl)c2)CC1 , I see its EC50 listed as > 195 µM (not active)

Looking up CC1COc2ccccc2N1C(=O)c1ccc(F)cc1 (stereo not drawn) , I see its EC50 listed as > 195 µM (not active)

Looking up O=C(O)/C=C/C(=O)Nc1cc(F)ccc1F , I see its EC50 listed as 35.9 µM (active)

Looking up CCn1c(C)cc(/C=C2/NC(=O)N(c3ccccc3)C2=O)c1C , I see its EC50 listed as > 195 µM (not active)

---
Looking up Cc1cc(C)nc(NC(=O)c2ccc(C)c([N+](=O)[O-])c2)n1 , I see its EC50 listed as > 195 µM (not active)

Looking up CCOC(=O)CN1C(=O)S/C(=C/c2cc(C)n(C)c2C)C1=O , I see its EC50 listed as > 195 µM (not active)

Looking up C/N=c1\scc(-c2ccccc2F)n1/N=C/c1ccc[nH]1 , I see its EC50 listed as < 0.16 µM (active)

* * *

- STUDY_TARGET: UniProtKB P33261
- Sequence (P33261 whole entry): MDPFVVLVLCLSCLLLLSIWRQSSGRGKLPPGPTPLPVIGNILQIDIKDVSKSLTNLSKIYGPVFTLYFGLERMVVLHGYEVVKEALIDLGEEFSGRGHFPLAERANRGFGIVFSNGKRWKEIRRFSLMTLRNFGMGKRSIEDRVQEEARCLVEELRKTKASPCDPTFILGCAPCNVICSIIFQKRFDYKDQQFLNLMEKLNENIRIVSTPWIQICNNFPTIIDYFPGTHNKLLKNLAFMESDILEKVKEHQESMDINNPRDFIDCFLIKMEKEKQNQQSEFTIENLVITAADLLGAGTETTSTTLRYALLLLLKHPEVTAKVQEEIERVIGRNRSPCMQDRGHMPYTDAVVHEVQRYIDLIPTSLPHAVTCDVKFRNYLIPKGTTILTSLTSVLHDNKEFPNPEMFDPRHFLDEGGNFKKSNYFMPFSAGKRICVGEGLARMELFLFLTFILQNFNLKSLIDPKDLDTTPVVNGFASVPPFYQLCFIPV
- METHOD_DESCRIPTION: Cytochrome panel assay with activity outcomes. Panel member name: p450-cyp2c19 Compounds with AC50 equal or less than 10 uM are considered active
- Assay type: functional
- TEST_SETTINGS: read-out: AC50
ATTRIBUTE_MEASURED: AC50

// known answers, use as guide
Looking up O=C(Nc1ccc(Cl)c(Cl)c1)N1CCC(N2CCCCC2)CC1 , I see its AC50 listed as 39.8 µM (inconclusive)

Looking up CCOc1c2ccc(C(=O)N[C@H](C)C3CCCCC3)cc2nn1CC , I see its AC50 listed as 28.2 µM (inconclusive)

Looking up O=C(Cn1cc(C(F)(F)F)ccc1=O)N1CCN(S(=O)(=O)c2ccccc2)CC1 , I see its AC50 listed as 31.6 µM (inconclusive)

---
Looking up Cc1cccc(C(=O)NNC(=O)C(=O)NC(C)(C)C)c1 , I see its AC50 listed as 11.2 µM (inconclusive)

Looking up O=C(CSc1ccc(Cl)cc1)Nc1ccc(N2CCN(c3ccccc3)CC2)c(F)c1 , I see its AC50 listed as 3.55 µM (inconclusive)

Looking up O=c1c(-c2ccc(F)cc2)nc2cnc(N3CCOCC3)nc2n1CCc1ccccc1 , I see its AC50 listed as 39.8 µM (inconclusive)

* * *

- Tested on: Streptococcus
- METHOD_DESCRIPTION: Group A Streptococcus viability loss, dose response, counter-screen for streptokinase expression inhibitor project, luminescence, BacTiterGlo (AID 1915);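 note: potency for reduction of bacterial viability or growth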
- Type: functional, organism-based
The source made the active and inactive calls.
ATTRIBUTE_MEASURED: EC50

// known answers, use as guide
Looking up COc1ccc(NC(=O)c2[nH]cnc2C(=O)N[C@@H](CC(C)C)C(=O)OC(C)(C)C)cc1 , I see its EC50 listed as 11.6 µM (active)

Looking up COc1cc(/C=N/Nc2nc3ccccc3s2)cc([N+](=O)[O-])c1O , I see its EC50 listed as > 150 µM (not active)

Looking up O=C(Nc1nnc(C2=COCCO2)o1)c1ccc([N+](=O)[O-])s1 , I see its EC50 listed as > 150 µM (not active)

Looking up Clc1ccc(CSc2nccn2Cc2ccccc2)cc1 , I see its EC50 listed as > 150 µM (not active)

// next entry
Looking up CCOc1ccc2nc(NC(=O)CN3CCC(n4nnc5cc(C(F)(F)F)ccc54)CC3)sc2c1 , I see its EC50 listed as > 150 µM (not active)
